System: PC3
methodSummary: Cellular proliferation assay (Alamar blue), PC3
Format: cell-based
measurementConditions: Homo sapiens, PC-3, PC-3 cells; 10% FCS; 72 h with compound; Alamar blue 24 h; read-out: pIC50 PC-3 (converted)
// IC50 lookup, one value per entry
Could you give me the number in µM? Just the number is fine.

Dear colleague, I am looking for the recorded IC50 of the following compound: COc1ccc(NC(=O)COc2ccc3cc2OCC(=O)N(C)CCCN(C)Cc2c[nH]c4ncnc(c24)N3)cc1 [Compound 129]
1

What would you report for CN1CCCN(C)C(=O)COc2cc(ccc2N2CCOCC2)Nc2ncnc3[nH]cc(c23)C1 [Compound 85] ?
5.01

What would you report for CN1CC(=O)NCCOc2cccc(c2)Nc2ncnc3[nH]cc(c23)C1 [Compound 23] ?
3.16
